Known switch fluorescence ratio of a selection of sequences
Tested on: ATP;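 also: ATP exposure 15 min at 22 °C before imaging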
assayProtocol: switch fluorescence ratio, 500 uM ATP over buffer (Cy3 cluster intensity, sum of 5 cycles each) (fold (ratio)); higher = stronger signal-on switching upon ATP binding; sequences stand for … in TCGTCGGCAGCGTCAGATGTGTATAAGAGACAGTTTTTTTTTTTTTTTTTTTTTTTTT…TC
studyConditions: aptamer strand: ATP DNA aptamer (quencher-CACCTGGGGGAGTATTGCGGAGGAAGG + anchor), 100 nM annealed; ATP concentration: 500 uM
Just the number, please, no unit attached.

Answered examples (5):
Field switch fluorescence ratio (ATP), entry TTGTATCAGT : 1.01

Field switch fluorescence ratio (ATP), entry GGTTGGTATG : 0.987

Field switch fluorescence ratio (ATP), entry ATAGCACGTT : 1.03

Field switch fluorescence ratio (ATP), entry AGGCTCATTG : 1.01

Field switch fluorescence ratio (ATP), entry CTTGTAAAAT : 0.993

***
Field switch fluorescence ratio (ATP), entry TATCCCAGGC : 1.31

Field switch fluorescence ratio (ATP), entry GTTTTTCCAG : 0.984

Field switch fluorescence ratio (ATP), entry TTAAGAGGTA : 1

Field switch fluorescence ratio (ATP), entry TTTTTTACTG : 0.991

Field switch fluorescence ratio (ATP), entry GTGACTTTGT : 1

Field switch fluorescence ratio (ATP), entry ATGATGTATG : 0.989

Field switch fluorescence ratio (ATP), entry GGGCATATGG : 1.05

Field switch fluorescence ratio (ATP), entry TTAAGGTTGC : 0.989

Field switch fluorescence ratio (ATP), entry GAGGGGCTTT : 0.982

Field switch fluorescence ratio (ATP), entry CGTACAAAAG : 0.998

Field switch fluorescence ratio (ATP), entry AATATGTTGT : 0.98

Field switch fluorescence ratio (ATP), entry ACGATGAAGA : 1.01

Field switch fluorescence ratio (ATP), entry CAGGAACTTG : 0.956

Field switch fluorescence ratio (ATP), entry GATGTATTTT : 0.982

Field switch fluorescence ratio (ATP), entry ATTTTGCTGG : 0.999

----------
Test system: ATP;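 also: ATP exposure 15 min at 22 °C before imaging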
assayProtocol: switch fluorescence ratio, 500 uM ATP over buffer (Cy3 cluster intensity, sum of 5 cycles each) (fold (ratio)); higher = stronger signal-on switching upon ATP binding; sequences stand for … in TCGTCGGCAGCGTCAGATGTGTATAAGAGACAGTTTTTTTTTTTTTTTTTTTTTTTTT…TC
studyConditions: aptamer strand: ATP DNA aptamer (quencher-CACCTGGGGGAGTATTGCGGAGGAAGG + anchor), 100 nM annealed; ATP concentration: 500 uM
quantityKind: switch fluorescence ratio

So, TAATCTGAGT ? Its switch fluorescence ratio was 1.01

So, GAATTTGATT ? Its switch fluorescence ratio was 1.02

So, AGGAAAATGT ? Its switch fluorescence ratio was 0.984

So, AACTGGGACT ? Its switch fluorescence ratio was 1.02

So, GGGTTTTGTG ? Its switch fluorescence ratio was 1.01

So, GGAAATAAAA ? Its switch fluorescence ratio was 1.22

***
So, AGTTGGGGGC ? Its switch fluorescence ratio was 1

So, TCATGACCCA ? Its switch fluorescence ratio was 1.03

So, TATAGTTGTG ? Its switch fluorescence ratio was 0.965

So, ACGTGTAAGC ? Its switch fluorescence ratio was 1.03

----------
System: ATP;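 also: ATP exposure 15 min at 22 °C before imaging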
assayProtocol: switch fluorescence ratio, 500 uM ATP over buffer (Cy3 cluster intensity, sum of 5 cycles each) (fold (ratio)); higher = stronger signal-on switching upon ATP binding; sequences stand for … in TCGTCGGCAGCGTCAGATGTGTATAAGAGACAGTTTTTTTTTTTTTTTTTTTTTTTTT…TC
studyConditions: aptamer strand: ATP DNA aptamer (quencher-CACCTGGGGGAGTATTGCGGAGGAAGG + anchor), 100 nM annealed; ATP concentration: 500 uM
quantityKind: switch fluorescence ratio
Just the number, please, no unit attached.

So, AGTTTGTCTG ? Its switch fluorescence ratio was 0.966

So, TTAATAAAAA ? Its switch fluorescence ratio was 0.985

So, AATTTTGGAG ? Its switch fluorescence ratio was 0.996

So, TTTTTTTAAT ? Its switch fluorescence ratio was 1

So, TTTGGTATTT ? Its switch fluorescence ratio was 0.984

So, AACAGGACGC ? Its switch fluorescence ratio was 1.08

----------
Tested on: ATP;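 also: ATP exposure 15 min at 22 °C before imaging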
assayProtocol: switch fluorescence ratio, 500 uM ATP over buffer (Cy3 cluster intensity, sum of 5 cycles each) (fold (ratio)); higher = stronger signal-on switching upon ATP binding; sequences stand for … in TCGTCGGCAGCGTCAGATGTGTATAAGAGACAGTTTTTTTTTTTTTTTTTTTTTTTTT…TC
studyConditions: aptamer strand: ATP DNA aptamer (quencher-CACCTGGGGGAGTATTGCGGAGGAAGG + anchor), 100 nM annealed; ATP concentration: 500 uM
quantityKind: switch fluorescence ratio
Just the number, please, no unit attached.

So, TAGCTGTAAT ? Its switch fluorescence ratio was 1.02

So, GGTATTAGTG ? Its switch fluorescence ratio was 1.01

So, GGTAGATTGG ? Its switch fluorescence ratio was 0.961

So, AGCGAAAAGG ? Its switch fluorescence ratio was 1

So, ATTCGTTTGT ? Its switch fluorescence ratio was 0.987

***
So, CAAGACTTGC ? Its switch fluorescence ratio was 1.03

So, AATACCCGGG ? Its switch fluorescence ratio was 1.02

So, GCGGGGGAAG ? Its switch fluorescence ratio was 1

So, TACTGGTTCT ? Its switch fluorescence ratio was 0.984

So, TCAGTGTTTT ? Its switch fluorescence ratio was 1

So, GGGATGCCAA ? Its switch fluorescence ratio was 0.979

So, ATTACATGTA ? Its switch fluorescence ratio was 0.987

So, CTGTAGAAGA ? Its switch fluorescence ratio was 1.05

So, CTAACTAAGG ? Its switch fluorescence ratio was 1.01

So, TGGGTTTTGG ? Its switch fluorescence ratio was 0.997

So, CAGGGATTTT ? Its switch fluorescence ratio was 0.98

So, ATATTTAAAA ? Its switch fluorescence ratio was 0.985

----------
Test system: ATP;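 also: ATP exposure 15 min at 22 °C before imaging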
assayProtocol: switch fluorescence ratio, 500 uM ATP over buffer (Cy3 cluster intensity, sum of 5 cycles each) (fold (ratio)); higher = stronger signal-on switching upon ATP binding; sequences stand for … in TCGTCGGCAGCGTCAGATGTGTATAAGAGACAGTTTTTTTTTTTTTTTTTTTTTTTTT…TC
studyConditions: aptamer strand: ATP DNA aptamer (quencher-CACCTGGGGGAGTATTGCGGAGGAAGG + anchor), 100 nM annealed; ATP concentration: 500 uM
quantityKind: switch fluorescence ratio
Just the number, please, no unit attached.

Answered examples (4):
So, GATGGAGGGA ? Its switch fluorescence ratio was 1.01

So, TTGATTTTGA ? Its switch fluorescence ratio was 1.04

So, TTTTTCCCGA ? Its switch fluorescence ratio was 1.02

So, ACGAAGGGGG ? Its switch fluorescence ratio was 1.14

***
So, GGGAAGCCGT ? Its switch fluorescence ratio was 1.14

So, AGAGAGGGGT ? Its switch fluorescence ratio was 1.01

So, CTTAGTGCGG ? Its switch fluorescence ratio was 0.978

So, TATGCTGGAT ? Its switch fluorescence ratio was 1.02

So, ATAAGTGAAA ? Its switch fluorescence ratio was 1.07

----------
Known switch fluorescence ratio of a selection of sequences
System: ATP;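 also: ATP exposure 15 min at 22 °C before imaging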
assayProtocol: switch fluorescence ratio, 500 uM ATP over buffer (Cy3 cluster intensity, sum of 5 cycles each) (fold (ratio)); higher = stronger signal-on switching upon ATP binding; sequences stand for … in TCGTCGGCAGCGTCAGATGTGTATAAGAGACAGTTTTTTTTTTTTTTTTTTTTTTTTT…TC
studyConditions: aptamer strand: ATP DNA aptamer (quencher-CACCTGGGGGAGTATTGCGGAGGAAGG + anchor), 100 nM annealed; ATP concentration: 500 uM

Answered examples (10):
So, TACTCTCCTT ? Its switch fluorescence ratio was 1.09

So, TGTAGGGGTG ? Its switch fluorescence ratio was 0.987

So, AGAGACACAT ? Its switch fluorescence ratio was 1

So, ATGGGGACGG ? Its switch fluorescence ratio was 1.01

So, TGTGTGTAAG ? Its switch fluorescence ratio was 1

So, TGCAGGATAT ? Its switch fluorescence ratio was 1.61

So, TTCTTGATTT ? Its switch fluorescence ratio was 1

So, TAGGCTTTTT ? Its switch fluorescence ratio was 0.992

So, GGGTTGGTCG ? Its switch fluorescence ratio was 0.955

So, TTAGCAAATA ? Its switch fluorescence ratio was 1.16

***
So, CGCCTCATTT ? Its switch fluorescence ratio was 1

So, ATCGAAAAGG ? Its switch fluorescence ratio was 0.998

So, TTTTCATTCC ? Its switch fluorescence ratio was 1.13
